Test system: E. coli h38 humanized mutant ribosome RFP fluorescence, mixed culture, 24 h
Assay: growth inhibition of wild-type GFP E. coli, dose response, h38 mutant RFP, cherry-pick (AID 977622)
Details: h38 mutant RFP at 50 uM; at 50 µM
Fewer than 10 of roughly 1,900 compounds were called active. Another 39% or so got no clear call; they are omitted. Not all results are given here.
Measured Parameter: activity change (%)
Give the number; % is assumed, so skip it.

Compound	activity change / %
CC(=O)Nc1cccc(OCCCOc2cccc([N+](=O)[O-])c2)c1	44.4
CN(C)CCNc1ncnc2c1sc1nc(N3CCCC3)c3c(c12)CC(C)(C)OC3	-11.2
CCC1(CC)NC(=O)N(CC(=O)N2N=C(c3ccc(Cl)cc3)CC2c2ccco2)C1=O (centres undefined)	-38.4
CCN(CC)CCNC(=O)c1cc2cc3ccc(OC)cc3nc2o1	-1.99
O=C(C[n+]1cc(-c2ccc(F)cc2)n2c1CCC2)c1cccs1	21.5

Name the reported activity change value associated with the compound `O=C(c1ccccc1)N(c1ccccc1)c1nccc2ccccc12`
31.1

Any idea what its activity change is? The compound is `Cc1cccc(-c2ccc([C@H]3[C@@H](CO)N4CCCCN(S(=O)(=O)c5ccccc5C)C[C@@H]34)cc2)c1`
18.9

For the compound shown here, CS(=O)(=O)N1CC2CCCN2c2ccc(C(F)(F)F)cc21 (centres undefined) , give the reported activity change.
2.53

Give the measured activity change of `C[C@]12C(=O)N(c3ccc(F)cc3)C(=O)N1[C@@H]1c3ccccc3OC[C@@H]1[C@H]2c1ccccc1` .
-13.6

I have this compound here, `O=C(Nc1ccc(C(=O)c2ccccc2)cc1)c1ccccc1` , and I need its recorded activity change.
-22.1

// returns reported activity change for input `C[C@H](CO)N1C[C@H](C)[C@@H](CN(C)C(=O)CCCN(C)C)OCCCC[C@H](C)Oc2ccc(NC(=O)Nc3cccc4ccccc34)cc2C1=O`
-2.48
